- measurement.target: EZH1 pentameric complex (EZH1:EED:SUZ12:RBBP4:AEBP2) (Homo sapiens)
- Sequence (Q92800 whole entry): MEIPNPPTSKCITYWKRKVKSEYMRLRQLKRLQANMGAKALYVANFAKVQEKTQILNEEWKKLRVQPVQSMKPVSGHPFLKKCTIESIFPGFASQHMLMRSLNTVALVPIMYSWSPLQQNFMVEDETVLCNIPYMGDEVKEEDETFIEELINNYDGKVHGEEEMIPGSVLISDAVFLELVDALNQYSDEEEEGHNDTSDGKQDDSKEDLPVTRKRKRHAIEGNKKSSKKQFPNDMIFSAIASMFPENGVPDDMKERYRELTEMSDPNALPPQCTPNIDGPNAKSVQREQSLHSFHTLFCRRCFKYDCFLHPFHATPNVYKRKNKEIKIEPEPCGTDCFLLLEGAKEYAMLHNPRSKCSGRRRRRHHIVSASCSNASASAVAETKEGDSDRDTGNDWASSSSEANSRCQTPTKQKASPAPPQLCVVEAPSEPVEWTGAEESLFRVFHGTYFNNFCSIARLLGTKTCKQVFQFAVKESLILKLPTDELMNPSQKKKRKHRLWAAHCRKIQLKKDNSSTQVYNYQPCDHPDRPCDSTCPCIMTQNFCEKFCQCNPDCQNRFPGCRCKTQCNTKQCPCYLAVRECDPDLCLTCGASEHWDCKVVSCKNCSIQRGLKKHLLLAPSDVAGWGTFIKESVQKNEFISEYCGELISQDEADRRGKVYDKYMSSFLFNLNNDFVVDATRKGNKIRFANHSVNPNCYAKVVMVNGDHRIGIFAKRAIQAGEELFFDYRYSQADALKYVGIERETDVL
- Sequence (O75530 whole entry partner): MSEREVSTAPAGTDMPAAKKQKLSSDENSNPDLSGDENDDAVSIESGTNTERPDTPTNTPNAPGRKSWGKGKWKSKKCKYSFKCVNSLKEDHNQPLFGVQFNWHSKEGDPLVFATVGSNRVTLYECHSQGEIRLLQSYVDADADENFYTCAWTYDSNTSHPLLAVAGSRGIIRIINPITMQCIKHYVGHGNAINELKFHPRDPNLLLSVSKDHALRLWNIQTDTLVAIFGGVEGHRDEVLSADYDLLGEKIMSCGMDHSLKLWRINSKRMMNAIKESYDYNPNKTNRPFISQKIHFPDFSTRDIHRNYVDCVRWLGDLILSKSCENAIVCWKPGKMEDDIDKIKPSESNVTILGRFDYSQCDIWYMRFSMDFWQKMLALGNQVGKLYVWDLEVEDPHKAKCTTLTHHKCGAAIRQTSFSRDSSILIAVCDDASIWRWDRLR
- Sequence (Q15022 whole entry partner): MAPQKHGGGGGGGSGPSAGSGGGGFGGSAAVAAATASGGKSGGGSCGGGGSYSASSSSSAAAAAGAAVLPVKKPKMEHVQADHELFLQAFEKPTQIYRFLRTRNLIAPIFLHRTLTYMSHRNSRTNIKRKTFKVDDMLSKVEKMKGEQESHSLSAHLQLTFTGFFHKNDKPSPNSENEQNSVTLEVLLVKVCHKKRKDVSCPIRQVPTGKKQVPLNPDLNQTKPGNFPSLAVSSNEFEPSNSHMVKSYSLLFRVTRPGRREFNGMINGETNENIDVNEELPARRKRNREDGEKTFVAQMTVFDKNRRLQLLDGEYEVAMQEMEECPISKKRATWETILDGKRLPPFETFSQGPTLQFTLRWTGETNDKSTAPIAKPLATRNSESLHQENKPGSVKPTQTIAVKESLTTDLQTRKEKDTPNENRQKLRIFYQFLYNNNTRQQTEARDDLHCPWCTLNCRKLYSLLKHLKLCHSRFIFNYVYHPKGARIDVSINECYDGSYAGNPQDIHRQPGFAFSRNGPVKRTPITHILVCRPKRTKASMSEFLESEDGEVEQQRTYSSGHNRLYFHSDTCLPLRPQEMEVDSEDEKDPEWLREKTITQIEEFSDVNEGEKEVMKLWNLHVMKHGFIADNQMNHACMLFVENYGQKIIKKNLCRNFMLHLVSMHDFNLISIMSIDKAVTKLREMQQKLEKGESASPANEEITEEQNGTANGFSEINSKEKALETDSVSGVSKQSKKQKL
- Sequence (Q09028 whole entry partner): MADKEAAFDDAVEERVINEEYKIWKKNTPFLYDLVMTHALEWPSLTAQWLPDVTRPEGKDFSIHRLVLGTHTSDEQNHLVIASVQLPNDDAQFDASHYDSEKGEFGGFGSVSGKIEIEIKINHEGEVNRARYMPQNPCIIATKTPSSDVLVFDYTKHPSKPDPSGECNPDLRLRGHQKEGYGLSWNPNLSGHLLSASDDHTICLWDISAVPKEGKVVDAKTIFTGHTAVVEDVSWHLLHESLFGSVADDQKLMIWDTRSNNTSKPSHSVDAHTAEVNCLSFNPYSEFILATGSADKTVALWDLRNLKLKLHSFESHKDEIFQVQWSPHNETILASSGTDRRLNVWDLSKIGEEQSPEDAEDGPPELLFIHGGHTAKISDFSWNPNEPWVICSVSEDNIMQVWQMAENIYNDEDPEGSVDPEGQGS
- Sequence (Q6ZN18 whole entry partner): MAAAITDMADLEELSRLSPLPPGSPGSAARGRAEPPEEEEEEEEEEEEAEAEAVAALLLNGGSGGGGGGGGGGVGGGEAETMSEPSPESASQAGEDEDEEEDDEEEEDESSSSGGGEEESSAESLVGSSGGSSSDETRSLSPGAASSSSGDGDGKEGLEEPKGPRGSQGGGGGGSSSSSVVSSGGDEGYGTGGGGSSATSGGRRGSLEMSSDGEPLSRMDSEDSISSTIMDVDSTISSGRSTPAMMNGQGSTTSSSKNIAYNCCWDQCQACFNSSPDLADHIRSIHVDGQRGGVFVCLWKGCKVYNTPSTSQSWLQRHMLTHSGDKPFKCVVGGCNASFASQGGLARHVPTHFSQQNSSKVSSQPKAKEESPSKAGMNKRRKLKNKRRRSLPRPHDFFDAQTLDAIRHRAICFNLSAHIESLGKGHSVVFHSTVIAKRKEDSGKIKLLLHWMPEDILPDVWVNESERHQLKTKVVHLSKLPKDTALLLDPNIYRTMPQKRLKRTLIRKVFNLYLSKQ
- experiment: Methyltransferase activity assay
- Type: biochemical
endpoint.label: inhibitory activity against EZH1, in words

| compound | reported.value |
| --- | --- |
| Cc1cc(C(C)(C)C)[nH]c(=O)c1CNC(=O)c1cc(-c2ccc(N3CCN(C(C)C)CC3)nc2)cc2c1cnn2C(C)C [Compound 32] | complete loss of potency |
| Cc1cc(-c2ccccc2)[nH]c(=O)c1CNC(=O)c1cc(-c2ccc(N3CCN(C(C)C)CC3)nc2)cc2c1cnn2C(C)C [Compound 33] | complete loss of potency |
| CC(C)N1CCN(c2ccc(-c3cc(C(=O)NC4CC(C)(C)NC(C)(C)C4)c4cnn(C(C)C)c4c3)cn2)CC1 [Compound 43] | complete loss of potency |

====

- measurement.target: EZH2 trimeric complex (EZH2:EED:SUZ12) (Homo sapiens)
- Sequence (Q15910 whole entry): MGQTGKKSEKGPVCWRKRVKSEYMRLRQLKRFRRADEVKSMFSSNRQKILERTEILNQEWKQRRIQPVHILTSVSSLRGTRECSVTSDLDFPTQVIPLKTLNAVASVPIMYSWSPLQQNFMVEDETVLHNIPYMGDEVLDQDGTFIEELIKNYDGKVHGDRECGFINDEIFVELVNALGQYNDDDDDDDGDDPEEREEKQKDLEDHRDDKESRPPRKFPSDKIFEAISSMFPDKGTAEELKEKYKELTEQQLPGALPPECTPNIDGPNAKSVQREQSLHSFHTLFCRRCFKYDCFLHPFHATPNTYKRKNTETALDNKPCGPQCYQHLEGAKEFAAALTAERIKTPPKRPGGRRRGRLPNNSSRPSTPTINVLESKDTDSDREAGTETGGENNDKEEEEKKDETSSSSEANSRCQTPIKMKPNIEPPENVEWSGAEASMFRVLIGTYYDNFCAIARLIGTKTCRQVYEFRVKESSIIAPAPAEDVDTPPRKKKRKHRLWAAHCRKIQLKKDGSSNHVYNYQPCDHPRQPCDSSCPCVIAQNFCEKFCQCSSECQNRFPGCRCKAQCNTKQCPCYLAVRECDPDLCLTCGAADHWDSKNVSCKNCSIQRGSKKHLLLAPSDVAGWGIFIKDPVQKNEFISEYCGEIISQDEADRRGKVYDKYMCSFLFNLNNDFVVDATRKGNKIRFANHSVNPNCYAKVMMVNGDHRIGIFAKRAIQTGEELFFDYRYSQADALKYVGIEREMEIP
- Sequence (O75530 whole entry partner): as the sequence (O75530 whole entry partner) above
- Sequence (Q15022 whole entry partner): as the sequence (Q15022 whole entry partner) above
- experiment: Methyltransferase activity assay
- Format: biochemical
endpoint.label: inhibitory activity against EZH2, in words

Solved entries:
| chemical.structure | measurement.target | reported.value |
| --- | --- | --- |
| Cc1cc(C(C)(C)C)[nH]c(=O)c1CNC(=O)c1cc(-c2ccc(N3CCN(C(C)C)CC3)nc2)cc2c1cnn2C(C)C | EZH2 trimeric complex (EZH2:EED:SUZ12) (Homo sapiens) | complete loss of potency |
| CCCc1cc(C)[nH]c(=O)c1CNC(=O)c1cc(-c2ccc(C(F)(F)F)cc2)cc2c1cnn2C(C)C | EZH2 trimeric complex (EZH2:EED:SUZ12) (Homo sapiens) | relatively good potency |
| CCCc1cc(C)[nH]c(=O)c1CNC(=O)c1cc(-c2ccccc2)cc2c1cnn2C(C)C | EZH2 trimeric complex (EZH2:EED:SUZ12) (Homo sapiens) | relatively good potency |
| CCCc1cc(C)[nH]c(=O)c1CNC(=O)c1nn(C(C)C)c2ccc(-c3ccc(N4CCN(C(C)C)CC4)nc3)cc12 | EZH2 trimeric complex (EZH2:EED:SUZ12) (Homo sapiens) | complete loss of potency |
| Cc1cc(-c2ccccc2)[nH]c(=O)c1CNC(=O)c1cc(-c2ccc(N3CCN(C(C)C)CC3)nc2)cc2c1cnn2C(C)C | EZH2 trimeric complex (EZH2:EED:SUZ12) (Homo sapiens) | complete loss of potency |

Please state recorded inhibitory activity against EZH2, in words (tested on EZH2 trimeric complex (EZH2:EED:SUZ12) (Homo sapiens)) of "CC(C)N1CCN(c2ccc(-c3cc(C(=O)NC4CC(C)(C)NC(C)(C)C4)c4cnn(C(C)C)c4c3)cn2)CC1"
complete loss of potency

For "CCCc1cc(C)[nH]c(=O)c1CNC(=O)c1cc(-c2ccc(F)cc2)cc2c1cnn2C(C)C" then?
relatively good potency

====

- measurement.target: EZH2 trimeric complex (EZH2:EED:SUZ12) (Homo sapiens)
- experiment: Methyltransferase activity assay
- Type: biochemical
- particulars: relative to the parent compound of the sentence (5, 24 or 53)
Task for the reader: assign each of the following compounds its reported fold loss of potency for EZH2.

Please state recorded fold loss of potency for EZH2 (tested on EZH2 trimeric complex (EZH2:EED:SUZ12) (Homo sapiens)) of "CCCc1cc(C)[nH]c(=O)c1CNC(=O)c1cc(Br)cc2c1cnn2C(C)C"
3–4 fold

For "CC(C)N1CCN(c2ccc(-c3cc(C(=O)NCc4ccc[nH]c4=O)c4cnn(C(C)C)c4c3)cn2)CC1" then?
> 500 fold

For "CCCc1cc(C)[nH]c(=O)c1CNC(=O)c1cc(-c2ccc(N3CCN(C(C)C)CC3)nc2)cc2c1cnn2C" then?
10–20 fold

For "CCCc1cc(C)[nH]c(=O)c1CNC(=O)c1cc(-c2ccc(N3CCN(C(C)C)CC3)nc2)cc2c1cnn2C1CCCCCC1" then?
10–20 fold

For "CCCc1cc(C)[nH]c(=O)c1CNC(=O)c1cc(-c2ccc(N3CCN(C(C)C)CC3)nc2)cc2c1cnn2CC1CCCC1" then?
> 15 fold
